procedure_summary: Cmax in Lewis rat at 1 mg/kg, iv administered via infusion over 30 mins or at 5 mg/kg, po administered via gavage by LC/MS/MS analysis
Type: ADME, organism-based
run_parameters: in vivo

>  <chemical_structure>
C[C@H](Nc1nc(N)nc(N)c1C#N)c1nc2cccc(F)c2c(=O)n1-c1cc(F)cc(F)c1

>  <unit_info>
nM

>  <Cmax>
2830

$$$$

---

procedure_summary: Clearance in human hepatocytes at 1 uM by LC/MS/MS analysis
Format: ADME, cell-based, Hepatocyte
measurement_name: CLhep predicted at 1 µM (mL/min/kg)

>  <chemical_structure>
[2H]c1nc(N)c(C#N)c(N[C@@H](C)c2nc3cccc(Cl)c3c(=O)n2-c2ccccc2)n1

>  <measurement_name>
CLhep predicted at 1 µM

>  <unit_info>
mL/min/kg

>  <reported_result>
8.33

$$$$
>  <chemical_structure>
C[C@H](Nc1nc(N)nc(N)c1C#N)c1nc2ccc(F)cc2c(=O)n1-c1cc(F)cc(F)c1

>  <measurement_name>
CLhep predicted at 1 µM

>  <unit_info>
mL/min/kg

>  <reported_result>
4.83

$$$$
>  <chemical_structure>
C[C@H](Nc1nc(N)nc(N)c1Cl)c1nc2cccc(Cl)c2c(=O)n1-c1ccccc1

>  <measurement_name>
CLhep predicted at 1 µM

>  <unit_info>
mL/min/kg

>  <reported_result>
10.8

$$$$
>  <chemical_structure>
C#Cc1c(N)ncnc1N[C@@H](C)c1nc2cccc(Cl)c2c(=O)n1-c1ccccc1

>  <measurement_name>
CLhep predicted at 1 µM

>  <unit_info>
mL/min/kg

>  <reported_result>
11

$$$$
>  <chemical_structure>
C[C@H](Nc1nc(N)nc(Cl)c1C#N)c1nc2cccc(Cl)c2c(=O)n1-c1ccccc1

>  <measurement_name>
CLhep predicted at 1 µM

>  <unit_info>
mL/min/kg

>  <reported_result>
13.7

$$$$
>  <chemical_structure>
C[C@H](Nc1nc(N)nc(N)c1C#N)c1nc2c(F)cccc2c(=O)n1-c1cc(F)cc(F)c1

>  <measurement_name>
CLhep predicted at 1 µM

>  <unit_info>
mL/min/kg

>  <reported_result>
8.83

$$$$
>  <chemical_structure>
C[C@H](Nc1nc(N)nc(N)c1C#N)c1nc2c(C#N)cccc2c(=O)n1-c1cc(F)cc(F)c1

>  <measurement_name>
CLhep predicted at 1 µM

>  <unit_info>
mL/min/kg

>  <reported_result>
8.33

$$$$
>  <chemical_structure>
Cc1c(N)ncnc1N[C@@H](C)c1nc2cccc(Cl)c2c(=O)n1-c1ccccc1

>  <measurement_name>
CLhep predicted at 1 µM

>  <unit_info>
mL/min/kg

>  <reported_result>
12.2

$$$$
>  <chemical_structure>
C[C@H](Nc1ncnc(N)c1C#Cc1ccc(F)cn1)c1nc2cccc(Cl)c2c(=O)n1-c1ccccc1

>  <measurement_name>
CLhep predicted at 1 µM

>  <unit_info>
mL/min/kg

>  <reported_result>
8.5

$$$$
>  <chemical_structure>
C[C@H](Nc1nc(N)nc(N)c1C#N)c1nc2cccc(Cl)c2c(=O)n1-c1ccccc1

>  <measurement_name>
CLhep predicted at 1 µM

>  <unit_info>
mL/min/kg

>  <reported_result>
3.5

$$$$
>  <chemical_structure>
C[C@H](Nc1ncnc(N)c1C(N)=O)c1nc2cccc(Cl)c2c(=O)n1-c1ccccc1

>  <measurement_name>
CLhep predicted at 1 µM

>  <unit_info>
mL/min/kg

>  <reported_result>
4.5

$$$$
>  <chemical_structure>
C[C@H](Nc1ncnc(N)c1C(F)(F)F)c1nc2cccc(Cl)c2c(=O)n1-c1ccccc1

>  <measurement_name>
CLhep predicted at 1 µM

>  <unit_info>
mL/min/kg

>  <reported_result>
9.83

$$$$
>  <chemical_structure>
C[C@H](Nc1nc(N)nc(N)c1C#N)c1nc2cccc(F)c2c(=O)n1-c1cc(F)cc(F)c1

>  <measurement_name>
CLhep predicted at 1 µM

>  <unit_info>
mL/min/kg

>  <reported_result>
5.67

$$$$
>  <chemical_structure>
C[C@H](Nc1nc(N)nc(N)c1C#N)c1nc2ccccc2c(=O)n1-c1cc(F)cc(F)c1

>  <measurement_name>
CLhep predicted at 1 µM

>  <unit_info>
mL/min/kg

>  <reported_result>
2.83

$$$$
>  <chemical_structure>
Cc1nc(N)nc(N[C@@H](C)c2nc3cccc(Cl)c3c(=O)n2-c2ccccc2)c1C#N

>  <measurement_name>
CLhep predicted at 1 µM

>  <unit_info>
mL/min/kg

>  <reported_result>
17.5

$$$$
>  <chemical_structure>
C[C@H](Nc1ncnc(N)c1C#N)c1nc2cccc(Cl)c2c(=O)n1-c1ccccc1

>  <measurement_name>
CLhep predicted at 1 µM

>  <unit_info>
mL/min/kg

>  <reported_result>
14.7

$$$$
>  <chemical_structure>
C[C@H](Nc1nc(Cl)nc(N)c1C#N)c1nc2cccc(Cl)c2c(=O)n1-c1ccccc1

>  <measurement_name>
CLhep predicted at 1 µM

>  <unit_info>
mL/min/kg

>  <reported_result>
9.83

$$$$
>  <chemical_structure>
C[C@H](Nc1nc(N)nc(N)c1C#N)c1nc2cccc(Cl)c2c(=O)n1-c1cc(F)cc(F)c1

>  <measurement_name>
CLhep predicted at 1 µM

>  <unit_info>
mL/min/kg

>  <reported_result>
13.5

$$$$
>  <chemical_structure>
C[C@H](Nc1nc(N)nc(N)c1C#N)c1nc2ccc(F)c(Cl)c2c(=O)n1-c1cc(F)cc(F)c1

>  <measurement_name>
CLhep predicted at 1 µM

>  <unit_info>
mL/min/kg

>  <reported_result>
6.5

$$$$

---

procedure_summary: Tmax in Lewis rat at 1 mg/kg, iv administered via infusion over 30 mins or at 5 mg/kg, po administered via gavage by LC/MS/MS analysis
Format: ADME, organism-based
run_parameters: in vivo

>  <chemical_structure>
C[C@H](Nc1nc(N)nc(N)c1C#N)c1nc2cccc(F)c2c(=O)n1-c1cc(F)cc(F)c1

>  <Tmax (h)>
1

$$$$

---

Tested on: Hepatocyte
procedure_summary: Clearance in human hepatocytes at 1 uM by LC/MS/MS in presence of aldehyde oxidase inhibitor raloxifene
Format: ADME, cell-based
Label yes (1) when CLH < 2 mL/min/kg; otherwise no (0).

>  <chemical_structure>
C[C@H](Nc1nc(N)nc(N)c1C#N)c1nc2cccc(Cl)c2c(=O)n1-c1ccccc1

>  <experimental_system>
Hepatocyte

>  <assigned_category>
yes (1)

$$$$
>  <chemical_structure>
C[C@H](Nc1ncnc(N)c1C#N)c1nc2cccc(Cl)c2c(=O)n1-c1ccccc1

>  <experimental_system>
Hepatocyte

>  <assigned_category>
yes (1)

$$$$
>  <chemical_structure>
[2H]c1nc(N)c(C#N)c(N[C@@H](C)c2nc3cccc(Cl)c3c(=O)n2-c2ccccc2)n1

>  <experimental_system>
Hepatocyte

>  <assigned_category>
yes (1)

$$$$
>  <chemical_structure>
C[C@H](Nc1ncnc(N)c1C#Cc1ccc(F)cn1)c1nc2cccc(Cl)c2c(=O)n1-c1ccccc1

>  <experimental_system>
Hepatocyte

>  <assigned_category>
no (0)

$$$$
>  <chemical_structure>
Cc1c(N)ncnc1N[C@@H](C)c1nc2cccc(Cl)c2c(=O)n1-c1ccccc1

>  <experimental_system>
Hepatocyte

>  <assigned_category>
no (0)

$$$$
>  <chemical_structure>
C[C@H](Nc1ncnc(N)c1C(N)=O)c1nc2cccc(Cl)c2c(=O)n1-c1ccccc1

>  <experimental_system>
Hepatocyte

>  <assigned_category>
yes (1)

$$$$

---

procedure_summary: Plasma clearance in Lewis rat at 1 mg/kg, iv administered via infusion over 30 mins measured after 24 hrs by LC/MS/MS analysis
Type: ADME, organism-based

>  <chemical_structure>
C[C@H](Nc1nc(N)nc(N)c1C#N)c1nc2cccc(F)c2c(=O)n1-c1cc(F)cc(F)c1

>  <unit_info>
mL/min/kg

>  <clearance>
12.3

$$$$

---

Species: Homo sapiens
procedure_summary: Selectivity ratio of IC50 for human full length PI3Kgamma to IC50 for human full length PI3Kdelta catalytic subunit/p85alpha

>  <chemical_structure>
C[C@H](Nc1nc(N)nc(N)c1C#N)c1nc2cccc(Cl)c2c(=O)n1-c1cccc(C#N)c1

>  <Ratio IC50>
90

$$$$
>  <chemical_structure>
C[C@H](Nc1nc(N)nc(Cl)c1C#N)c1nc2cccc(Cl)c2c(=O)n1-c1ccccc1

>  <Ratio IC50>
25

$$$$
>  <chemical_structure>
C[C@H](Nc1ncnc(N)c1C(N)=O)c1nc2cccc(Cl)c2c(=O)n1-c1ccccc1

>  <Ratio IC50>
310

$$$$
>  <chemical_structure>
C[C@H](Nc1nc(N)nc(N)c1Cl)c1nc2cccc(Cl)c2c(=O)n1-c1ccccc1

>  <Ratio IC50>
200

$$$$
>  <chemical_structure>
C[C@H](Nc1ncnc(N)c1C#Cc1cn[nH]c1)c1nc2cccc(Cl)c2c(=O)n1-c1ccccc1

>  <Ratio IC50>
230

$$$$
>  <chemical_structure>
C[C@H](Nc1nc(N)nc(N)c1C#N)c1nc2cccc(Cl)c2c(=O)n1-c1cccc(Cl)c1

>  <Ratio IC50>
70

$$$$
>  <chemical_structure>
C[C@H](Nc1nc(N)nc(N)c1C#N)c1nc2cccc(Cl)c2c(=O)n1-c1ccc(F)cc1

>  <Ratio IC50>
2

$$$$
>  <chemical_structure>
C[C@H](Nc1nc(N)nc(N)c1C#N)c1nc2ccccc2c(=O)n1-c1cc(F)cc(F)c1

>  <Ratio IC50>
75

$$$$
>  <chemical_structure>
C[C@H](Nc1nc(N)nc(N)c1C#N)c1nc2c(F)cccc2c(=O)n1-c1cc(F)cc(F)c1

>  <Ratio IC50>
130

$$$$

Source of measurements: ChEMBL document CHEMBL3804828
